- Tested on: OVCAR-3 ovarian
- assayOverview: NCI-60 one-dose screen, 48 h
- conditionContext: 10 µM unless noted
This is part of a sample that, as a whole, favours compounds with a hit. Of some 83,000 tested, about 20% had one in any assay. The source made the active and inactive calls. How the source made its calls: active means growth percent below 10; inactive means the rest.
Possible outcomes: active, inactive

>  <molecule>
Ic1ccccc1I

>  <class>
inactive

$$$$
>  <molecule>
CCN1C(=O)N(CC)C2C1NN=c1s/c(=C\c3cnc(C)n3C)c(=O)n12 (stereo unspecified)

>  <class>
active

$$$$
>  <molecule>
O=C(C1CCCCC1)[C@@H]1[C@]2(C(=O)NC3CCCCC32)[C@@H]2CCCN2[C@@]12C(=O)NC1CCC(Cl)CC12 (stereo partly specified)

>  <class>
active

$$$$
>  <molecule>
COc1cnc2c(c1)C(=O)c1c-2n(CCCCl)c(=O)c2ccncc12

>  <class>
active

$$$$
>  <molecule>
COc1cc(OC)c(/C=C/C(=O)c2c(O)cc(OC)c(C3CCN(C)CC3)c2OC)c(OC)c1

>  <class>
active

$$$$
>  <molecule>
CNC(=O)c1ccccc1Nc1nc(Nc2cc(OC)c(OC)c(OC)c2)ncc1Br

>  <class>
active

$$$$
>  <molecule>
COc1cc(C(=O)c2c(-c3ccccc3)oc3c(OC)cccc23)cc(OC)c1OC

>  <class>
active

$$$$
>  <molecule>
CSC1=Nc2c(c(C)c(-c3ccccc3)n2CCCC(=O)O)C2=NC(=O)C[C@H](C)N12

>  <class>
inactive

$$$$
>  <molecule>
Cn1cc(-c2csc(-c3cn(CCCN4CCOCC4)c4ccccc34)n2)c2cccnc21

>  <class>
inactive

$$$$
>  <molecule>
Cn1cc(-c2nn3cc(-c4cccs4)nc3s2)c2cc(F)ccc21

>  <class>
active

$$$$
>  <molecule>
O=C(CSc1nc(-c2ccccc2)cc(=O)[nH]1)Nc1nc(-c2ccccc2)cs1

>  <class>
inactive

$$$$

---

- Tested on: MCF7 breast
- assayOverview: NCI-60 one-dose screen, 48 h (100 = growth as untreated, 0 = no growth, -100 = all killed)
- conditionContext: 10 µM unless noted
About 83,000 compounds went through this panel and 20% of them were active in at least one assay; those are over-represented in the sample as a whole.
Binning scheme for growth: bottom bin: < 30%; middle bin: ≥ 30% and < 80%; top bin: ≥ 80%

>  <compound>
CC(=O)c1ccc(Nc2nccc(-c3ccc4ccccc4c3)n2)cc1

>  <class>
middle bin

$$$$
>  <compound>
CNC1=CC(=O)c2c(C(=O)OC)c(C)[n+]([O-])c(C)c2C1=O

>  <class>
middle bin

$$$$
>  <compound>
CC1C(/C=N/NC(N)=S)C(C#N)(C#N)C1(C#N)C#N (stereo not given)

>  <class>
top bin

$$$$
>  <compound>
CCN1CCN(CC(=O)Nc2nc3ccc(NCc4ccc(F)cc4)cc3s2)CC1

>  <class>
top bin

$$$$
>  <compound>
Oc1c(CN2CCOCC2)cc(COCc2ccccc2)c2cccnc12

>  <class>
bottom bin

$$$$
>  <compound>
CCc1n(Cc2ccc3ccccc3n2)cc[n+]1Cc1ccc2ccccc2n1

>  <class>
bottom bin

$$$$
>  <compound>
C=Cc1cnc(Nc2ccc(OC)cc2)nc1NCCCNC(=O)C1CCC1

>  <class>
middle bin

$$$$
>  <compound>
COc1ccccc1C(=O)Nc1cccc(NC(=O)c2ccoc2C)c1

>  <class>
bottom bin

$$$$
